Source: patent US8697874B2

Test system: MEK1/2 phosphorylation in human colorectal cancer cell HT-29
protocolNotes: Colorectal cancer cell HT-29 intracellular MEK phosphorylation inhibitory activity in vitro
Type: cell-based
statedConditions: MEK1/2 protein phosphorylation, HT-29 cells, compound 0.5 μM, 2 hrs, read-out: inhibitory rate (%) at 0.5 μM
For each entry below, report its inhibition at 0.5 µM value.
Numbers only, in %.

// worked examples, inhibition at 0.5 µM included
O=C(Cc1cccc(C(F)(F)F)c1)Nc1cc(Oc2ccc3nc(NC(=O)C4CC4)sc3n2)ccc1F :: 88
O=C(Nc1cccc(C(F)(F)F)c1)Nc1cc(Oc2ccc3nc(NC(=O)C4CC4)sc3n2)ccc1F :: 88
O=C(Nc1ccc(Cl)c(C(F)(F)F)c1)Nc1cc(Nc2ccc3nc(NC(=O)C4CC4)sc3n2)ccc1F :: 98

Okay, now this molecule:
Entry CN(c1ccc(F)c(NC(=O)Nc2ccc(C(C)(C)C)cc2)c1)c1ccc2nc(NC(=O)C3CC3)sc2n1 , system MEK1/2 phosphorylation in human colorectal cancer cell HT-29: what inhibition at 0.5 µM was measured?
94

====

System: human colorectal cancer cell HT-29
protocolNotes: Colorectal cancer cell HT-29 growth suppressive activity in vitro
Type: cell-based
statedConditions: 72 h, HT-29 cells, 3 days culture, SRB staining
Method: Colorectal Cancer Cell HT-29 Growth Suppressive Activity in Vitro 100 μL of a cell suspension (3,000 cells/well) of human colorectal cancer cell HT-29 (purchased from ATCC) was plated in a 96-well plate, and the cells were cultured at 37° C. in a 5% CO2 gas incubator. […] The absorbance at an absorption wavelength 550 nm was measured, and cell amount was measured as a protein amount. […]
pIC50: −log10 of the molar value.
Answer each item with its documented pIC50.

# annotated cases, reported pIC50 shown
CN(c1cccc(NC(=O)Nc2ccc(OC(F)(F)F)cc2)c1)c1ccc2nc(NC(=O)C3CC3)sc2n1 [Example 9] :: > 6.30
Cc1ccc(NC(=O)Cc2ccsc2)cc1Oc1ccc2nc(NC(=O)C3CC3)sc2n1 [Example 44] :: > 6.30

Find the recorded pIC50 belonging to O=C(Nc1ccc(C(F)(F)F)nc1)Nc1cc(Oc2ccc3nc(NC(=O)C4CC4)sc3n2)ccc1F [Example 29] and report it.
> 6.30

====

subjectOfTest: BRAF (V600E) kinase (Homo sapiens, UniProt P15056, V600E)
Construct: area encoding the BRAF kinase domain region, so that the protein contains an N-terminal Flag; made in house; host or cells: SF-21 insect cells infected with recombinant baculovirus BAC-V600E
Sequence (P15056 457-717 V600E limits assumed): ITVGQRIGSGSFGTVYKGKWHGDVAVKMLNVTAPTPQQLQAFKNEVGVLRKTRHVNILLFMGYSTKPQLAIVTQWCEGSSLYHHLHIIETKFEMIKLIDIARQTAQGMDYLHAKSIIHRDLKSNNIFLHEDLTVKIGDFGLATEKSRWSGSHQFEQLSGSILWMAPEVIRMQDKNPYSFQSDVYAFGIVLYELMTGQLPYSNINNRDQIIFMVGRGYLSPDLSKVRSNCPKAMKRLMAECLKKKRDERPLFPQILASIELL
protocolNotes: Determination of BRAF (V600E) kinase inhibitory activity
Format: biochemical
statedConditions: compound 1.0 μm; substrate GSTP1-MEK1 (K96R), [γ-32P]ATP
For each record, write down the corresponding inhibitory rate (%) at 1.0 μm.
Answers are plain numbers, in %.

Answered examples (3):
CN(c1ccc(F)c(NC(=O)Nc2ccc(C(F)(F)F)cc2)c1)c1ccc2nc(NC(=O)C3CC3)sc2n1 :: 98
O=C(Cc1ccccc1C(F)(F)F)Nc1cc(Oc2ccc3nc(NC(=O)C4CC4)sc3n2)ccc1F :: 100
O=C(Cc1ccc(C(F)(F)F)cc1)Nc1cc(Oc2ccc3nc(NC(=O)C4CC4)sc3n2)ccc1F :: 98

Here is another compound to look at.
Would you mind telling me what inhibitory rate (%) at 1.0 μm value was observed for CN(c1cccc(NC(=O)Nc2ccc(Cl)c(C(F)(F)F)c2)c1)c1ccc2nc(NC(=O)C3CC3)sc2n1 ?
99
